Value source: ChEMBL document CHEMBL3272181

As shown below, each of these compounds has a reported Km value.
Species: Oryctolagus cuniculus
assay-text: Activity at rabbit muscle AMP aminohydrolase by Lineweaver-Burk plot analysis
Assay type: tissue-based
details: Muscle tissue
Numbers only here, please. The scale is µM.

The examples below pair each entry with its known result.
compound	Km [µM]
NCC(C[C@H]1O[C@@H](n2cnc3c(N)ncnc32)[C@H](O)[C@@H]1O)P(=O)(O)O (stereo partly specified)	140
CC1(C)O[C@@H]2[C@H](O1)[C@@H](COP(=O)(O)O)O[C@H]2n1cnc2c(N)ncnc21	130
Nc1ncnc2c1ncn2[C@@H]1O[C@H](COP(=O)(O)O)[C@@H](O)[C@H]1O	600
CC(=O)OC(C[C@H]1O[C@@H](n2cnc3c(N)ncnc32)[C@H](O)[C@@H]1O)P(=O)(O)O (stereo partly specified)	120
CC(=O)O[C@@H]1[C@H](OC(C)=O)[C@@H](COP(=O)(O)O)O[C@H]1n1cnc2c(N)ncnc21	670

Field: next compound
Data request, read-out Km, for CC(=O)NCC(C[C@H]1O[C@@H](n2cnc3c(N)ncnc32)[C@H](O)[C@@H]1O)P(=O)(O)O (stereo partly specified) 80
